Here, each record is paired with measured melting point data.
MEASURE_NAME: melting point (°C)

COMPOUND: CCCCN(CCO)CCCC
UOM: °C
RECORDED_VALUE: -75

COMPOUND: CC12Cc3nonc3CC1CCC1C2CCC2(C)C1CCC2(C)O (stereo unspecified)
UOM: °C
RECORDED_VALUE: 152

COMPOUND: N#CCCc1ccc(O)cc1
UOM: °C
RECORDED_VALUE: 56

COMPOUND: Cc1cc([N+](=O)[O-])ccc1C(=O)O
UOM: °C
RECORDED_VALUE: 154

COMPOUND: Brc1c(Br)c(Br)c(Br)c(Br)c1Br
UOM: °C
RECORDED_VALUE: 326

COMPOUND: CC(CCC(=O)O)C1CCC2C3CCC4C(Br)C(=O)CCC4(C)C3CCC12C (stereo unspecified)
UOM: °C
RECORDED_VALUE: 190

COMPOUND: CCC(C)CCC(C)O (stereo unspecified)
UOM: °C
RECORDED_VALUE: -61

COMPOUND: COc1cc(C)cc(OC)c1O
UOM: °C
RECORDED_VALUE: 39

COMPOUND: Cc1nnc(NS(=O)(=O)c2ccc(N)cc2)s1
UOM: °C
RECORDED_VALUE: 208

COMPOUND: CN1C2CCC1CC(OC(=O)c1ccccc1)C2 (stereo unspecified)
UOM: °C
RECORDED_VALUE: 49

COMPOUND: CCc1ccccc1NCN1C(=O)c2ccccc2C1=O
UOM: °C
RECORDED_VALUE: 104

COMPOUND: COc1ccc(CBr)cc1C(F)(F)F
UOM: °C
RECORDED_VALUE: 77

COMPOUND: O=C(Cn1cncn1)c1ccc(F)cc1F
UOM: °C
RECORDED_VALUE: 105

COMPOUND: Cc1ccc(C(O)c2ccc(C)cc2)cc1
UOM: °C
RECORDED_VALUE: 71

COMPOUND: OCC(CO)(CO)NCCCNC(CO)(CO)CO
UOM: °C
RECORDED_VALUE: 169

COMPOUND: ClCc1cccc2ccccc12
UOM: °C
RECORDED_VALUE: 32
